Ref: patent US9738676B2

# test details: Oral bioavailability, pharmacokinetic study in mice
# Format: in vivo, mouse
# cond: in vivo; mouse; 10 mg/kg oral, 1 mg/kg intravenous; dose-normalized AUC; read-out: Oral bioavail. (mouse F %)
measured quantity: bioavailability (%)
Numbers only, in %.

# example entries with known answers
INSERT INTO assay_data (mol_smiles, unit_text, observed_value) VALUES
  ('CC[C@H]1OC(=O)[C@H](C)[C@@H](O[C@H]2C[C@@](C)(OC)[C@@H](O)[C@H](C)O2)[C@H](C)[C@@H](O[C@@H]2O[C@H](C)C[C@H](N(C)C(=O)N3CCOCC3)[C@H]2O)[C@](C)(OC)C[C@@H](C)C(=O)[C@H](C)[C@H]2[C@H](SCCOc3cc(C(=O)Nc4c(Cl)cncc4Cl)ccc3OC)C(=O)O[C@@]21C', '%', 4.6),
  ('CC[C@H]1OC(=O)[C@H](C)[C@@H](O[C@H]2C[C@@](C)(OC)[C@@H](O)[C@H](C)O2)[C@H](C)[C@@H](O[C@@H]2O[C@H](C)C[C@H](N(C)C(=O)N3CCOCC3)[C@H]2O)[C@](C)(OC)C[C@@H](C)C(=O)[C@H](C)[C@H]2N(CCCOc3cc(C(=O)Nc4c(Cl)cncc4Cl)ccc3OC)C(=O)O[C@]12C', '%', 16.2);

[Q] Item CC[C@H]1OC(=O)[C@H](C)[C@@H](O[C@H]2C[C@@](C)(OC)[C@@H](O)[C@H](C)O2)[C@H](C)[C@@H](O[C@@H]2O[C@H](C)C[C@H](N(C)C(C)=O)[C@H]2O)[C@](C)(OC)C[C@@H](C)C(=O)[C@H](C)[C@H]2[C@H](SCCN(Cc3c(Cl)cncc3Cl)c3ccc(OC)c(OC4CCCC4)c3)C(=O)O[C@@]21C has what recorded bioavailability?
[A] 25.5
